system: NCI-H460 lung; experiment: NCI tumour cell line growth inhibition, 48 h
propertyLabel: TGI

Sample records with TGI:
compound: Cn1c2ccccc2c2c3c(c4c5ccccc5n(C5OC(CO)C(O)C(O)C5O)c4c21)C(=O)OC3=O (centres undefined)
propertyLabel: TGI
result: > 100 µM

compound: CC1=C[C@H]([C@H]2C=C(C)C(C(N)=O)=CN2Cc2c(Cl)cccc2Cl)N(Cc2c(Cl)cccc2Cl)C=C1C(N)=O
propertyLabel: TGI
result: > 75 µM

Please look at this compound and report its TGI: CN(C)/C=C/c1c2c(nc3ccccc13)C(=O)c1cccnc1C2=O
0.532 µM

Supply TGI value. Item: O=[N+]([O-])c1cc(I)cc(/C=N/NS(=O)(=O)c2ccc(Cl)cc2)c1O
37.4 µM
